B1: glmS ribozyme (parent)
chain: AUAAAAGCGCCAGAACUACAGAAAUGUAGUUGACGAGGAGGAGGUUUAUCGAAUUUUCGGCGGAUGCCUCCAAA

variants of: B1; assay: self-cleavage kobs at 10000 uM GlcN6P; higher = faster cleavage; RNA array; settings: with glucosamine-6-phosphate
Variants at the floor of the assay were thinned out.
For each record, write down the corresponding self-cleavage kobs at 10000 uM GlcN6P.

C11U C58G has a reported self-cleavage kobs at 10000 uM GlcN6P of 3.28e-05 s⁻¹

// recorded self-cleavage kobs at 10000 uM GlcN6P for C16A G44C : < 1e-05 s⁻¹

Lab note: measured self-cleavage kobs at 10000 uM GlcN6P of C8A G9A C10U A33G A36G A39U U47C C58A was < 1e-05 s⁻¹

A14C G40A has a reported self-cleavage kobs at 10000 uM GlcN6P of 0.00112 s⁻¹

Recorded result, A14C G60U C71G , self-cleavage kobs at 10000 uM GlcN6P: < 1e-05 s⁻¹

For A15G A53C the variant record lists self-cleavage kobs at 10000 uM GlcN6P as 0.00742 s⁻¹

Short answer for C11U G66A : self-cleavage kobs at 10000 uM GlcN6P was 0.000673 s⁻¹

Reported self-cleavage kobs at 10000 uM GlcN6P of G41A U47G : 0.00104 s⁻¹

self-cleavage kobs at 10000 uM GlcN6P recorded for this variant, A14C A23C , is 0.0057 s⁻¹

Value of measured self-cleavage kobs at 10000 uM GlcN6P for the entry A12U G62C : < 1e-05 s⁻¹

The value of self-cleavage kobs at 10000 uM GlcN6P measured for the variant U30A U55G C61U turned out to be < 1e-05 s⁻¹

Record A42U C67A , field self-cleavage kobs at 10000 uM GlcN6P: 0.00183 s⁻¹

Value of measured self-cleavage kobs at 10000 uM GlcN6P for the entry C34U A39U : < 1e-05 s⁻¹

self-cleavage kobs at 10000 uM GlcN6P for C10U G38U U46A C58U is < 1e-05 s⁻¹

The measured self-cleavage kobs at 10000 uM GlcN6P associated with A6G G29C G51A reads < 1e-05 s⁻¹

Briefly, self-cleavage kobs at 10000 uM GlcN6P measured for G38U A64U C71U : < 1e-05 s⁻¹

So, C11A C58U C68A ? Its self-cleavage kobs at 10000 uM GlcN6P was 5.61e-05 s⁻¹

A6U A36C C58G has a reported self-cleavage kobs at 10000 uM GlcN6P of < 1e-05 s⁻¹

Record U46G G60U , field self-cleavage kobs at 10000 uM GlcN6P: < 1e-05 s⁻¹

The recorded self-cleavage kobs at 10000 uM GlcN6P for entry C10G G40C equals < 1e-05 s⁻¹

variant G43U G59A , self-cleavage kobs at 10000 uM GlcN6P observed: < 1e-05 s⁻¹

Measured self-cleavage kobs at 10000 uM GlcN6P of A15C A36C C71U : < 1e-05 s⁻¹
